- experimental_system: Human PD-L1/PD-1 (Homo sapiens, UniProt Q9NZQ7)
- Construct: made in house; host or cells: HEK293T
- Sequence (Q9NZQ7 with tags, fused parts or gaps): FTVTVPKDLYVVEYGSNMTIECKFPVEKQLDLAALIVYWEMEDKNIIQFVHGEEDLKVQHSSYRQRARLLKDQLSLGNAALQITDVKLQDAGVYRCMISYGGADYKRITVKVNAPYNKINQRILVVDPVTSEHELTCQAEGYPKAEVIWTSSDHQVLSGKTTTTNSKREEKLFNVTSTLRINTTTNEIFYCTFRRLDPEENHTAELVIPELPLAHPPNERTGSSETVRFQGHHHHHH
- assay_remarks: HTRF PD-1-Ig/PD-L1-His binding assay (human PD-L1)
- conditions_used: cluster symbol; read-out: HTRF IC50 cluster
Positions of bridges follow the written chain, without caps; N, C: chain ends. Non-standard residues stand in square brackets, D forms with d. Residues, ends and D or L forms follow the SMILES beside them. ξ: configuration not given here. Bta = N[C@@H](Cc1csc2ccccc12)C(=O)O; Hyp = O=C(O)[C@@H]1C[C@@H](O)CN1; NMeNle = CCCC[C@H](NC)C(=O)O; NMeM = CN[C@@H](CCSC)C(=O)O; Pip = O=C(O)[C@@H]1CCCCN1; NMeA = CN[C@@H](C)C(=O)O; Orn = NCCC[C@H](N)C(=O)O; Dap = NC[C@H](N)C(=O)O; ξC = NC(CS)C(=O)O; Sar = CNCC(=O)O
Reported IC50 is given for each of the following compounds.

CCCC[C@H]1C(=O)N(C)[C@@H](CCCC)C(=O)N[C@@H](CCCNC(=N)N)C(=O)NC(C(=O)NCC(N)=O)CSCC(=O)N[C@@H](Cc2ccc(O)cc2)C(=O)N(C)[C@@H](C)C(=O)N[C@@H](CC(N)=O)C(=O)N2CCC[C@H]2C(=O)N[C@@H](CO)C(=O)N[C@@H](CC(C)C)C(=O)N2C[C@H](O)C[C@H]2C(=O)N[C@@H](Cc2c[nH]c3ccccc23)C(=O)N[C@@H](CO)C(=O)N[C@@H](Cc2csc3ccccc23)C(=O)N1C (some centres unmarked) [Example 9071] ({CH2CO}-Y[NMeA]NPSL[Hyp]WS[Bta][NMeNle][NMeNle]R[ξC]G-NH2; thioether N-14)
0.385 to 6.74 nM
CCCC[C@H]1C(=O)N[C@@H](C)C(=O)NC(C(=O)NCC(N)=O)CSCC(=O)N[C@@H](Cc2ccc(O)cc2)C(=O)N(C)[C@@H](C)C(=O)N[C@@H](CC(N)=O)C(=O)N2CCC[C@H]2C(=O)N[C@@H](CN)C(=O)N[C@@H](CC(C)C)C(=O)N2CCC[C@H]2C(=O)N[C@@H](Cc2c[nH]c3ccccc23)C(=O)N[C@@H](CO)C(=O)N[C@@H](Cc2csc3ccccc23)C(=O)N(C)[C@@H](CCSC)C(=O)N1C (some centres unmarked) [Example 9094] ({CH2CO}-Y[NMeA]NP[Dap]LPWS[Bta][NMeM][NMeNle]A[ξC]G-NH2; thioether N-14)
0.385 to 6.74 nM

Q: Note IC50 for the compound shown: CCCC[C@H]1C(=O)N(C)[C@@H](CCCC)C(=O)N[C@@H](CCCN)C(=O)N[C@H](C(=O)NCC(N)=O)CSCC(=O)N[C@@H](Cc2ccc(O)cc2)C(=O)N2CCCC[C@H]2C(=O)N[C@@H](CC(=O)O)C(=O)N2CCC[C@H]2C(=O)N[C@@H](CN)C(=O)N[C@@H](CC(C)C)C(=O)N2C[C@H](O)C[C@H]2C(=O)N[C@@H](Cc2c[nH]c3ccccc23)C(=O)N[C@@H](CO)C(=O)N[C@@H](Cc2c[nH]c3ccccc23)C(=O)N1C [Example 1235] ({CH2CO}-Y[Pip]DP[Dap]L[Hyp]WSW[NMeNle][NMeNle][Orn]CG-NH2; thioether N-14)
Ans: 6.76 to 30.3 nM

Q: Dear colleague, please send me the reported IC50 for CCCC[C@H]1C(=O)N(C)[C@@H](CCCC)C(=O)N[C@@H](CC(=O)O)C(=O)N[C@H](C(=O)NCC(N)=O)CSCC(=O)N[C@@H](Cc2ccccc2)C(=O)N(C)[C@@H](C)C(=O)N[C@@H](CC(=O)O)C(=O)N2CCC[C@H]2C(=O)N[C@@H](Cc2cnc[nH]2)C(=O)N[C@@H](CCCNC(=N)N)C(=O)N(C)CC(=O)N[C@@H](Cc2c[nH]c3ccccc23)C(=O)N[C@@H](CCCNC(=N)N)C(=O)N[C@@H](Cc2c[nH]c3ccccc23)C(=O)N1C [Example 1056] ({CH2CO}-F[NMeA]DPHR[Sar]WRW[NMeNle][NMeNle]DCG-NH2; thioether N-14) when you can.
Ans: 6.76 to 30.3 nM

Q: Input CCCC[C@H]1C(=O)N(C)[C@@H](CCCC)C(=O)NCC(=O)N[C@H](C(=O)NCC(N)=O)CSCC(=O)N[C@@H](Cc2ccccc2)C(=O)N(C)[C@@H](C)C(=O)N[C@@H](CC(N)=O)C(=O)N2CCC[C@H]2C(=O)N[C@@H](Cc2cnc[nH]2)C(=O)N[C@@H](CC(C)C)C(=O)N(C)CC(=O)N[C@@H](Cc2c[nH]c3ccccc23)C(=O)N[C@@H](CO)C(=O)N[C@@H](Cc2c[nH]c3ccccc23)C(=O)N1C [Example 5015] ({CH2CO}-F[NMeA]NPHL[Sar]WSW[NMeNle][NMeNle]GCG-NH2; thioether N-14) , output reported IC50.
Ans: 6.76 to 30.3 nM

Q: Please give the documented IC50 of CCCC[C@H]1C(=O)N(C)[C@@H](CCCC)C(=O)N[C@@H](CCCNC(=N)N)C(=O)N[C@H](C(=O)NCC(N)=O)CSCC(=O)N[C@@H](Cc2ccccc2)C(=O)N(C)[C@@H](C)C(=O)N[C@@H](CC(C)C)C(=O)N2CCC[C@H]2C(=O)N[C@@H](Cc2cnc[nH]2)C(=O)N[C@@H](CC(C)C)C(=O)N(C)CC(=O)N[C@@H](Cc2c[nH]c3ccccc23)C(=O)N[C@@H](CO)C(=O)N[C@@H](Cc2c[nH]c3ccccc23)C(=O)N1C [Example 1082] ({CH2CO}-F[NMeA]LPHL[Sar]WSW[NMeNle][NMeNle]RCG-NH2; thioether N-14)
Ans: > 30.5 nM

Q: Provide measured IC50 value, entry: CCCC[C@H]1C(=O)N[C@@H](C)C(=O)NC(C(=O)NCC(N)=O)CSCC(=O)N[C@@H](Cc2ccc(O)cc2)C(=O)N(C)[C@@H](C)C(=O)N[C@@H](CC(N)=O)C(=O)N2CCC[C@H]2C(=O)N[C@@H](CN)C(=O)N[C@@H](CC(C)C)C(=O)N2C[C@H](O)C[C@H]2C(=O)N[C@@H](Cc2c[nH]c3ccccc23)C(=O)N[C@@H](CO)C(=O)N[C@@H](Cc2csc3ccccc23)C(=O)N(C)[C@@H](CCSC)C(=O)N1C (some centres unmarked) [Example 9096] ({CH2CO}-Y[NMeA]NP[Dap]L[Hyp]WS[Bta][NMeM][NMeNle]A[ξC]G-NH2; thioether N-14)
Ans: 0.385 to 6.74 nM

Q: Check the records and state IC50 for CCCC[C@H]1C(=O)N(C)[C@@H](CCCC)C(=O)N[C@@H](CO)C(=O)NC(C(=O)NCC(N)=O)CSCC(=O)N[C@@H](Cc2ccc(O)cc2)C(=O)N(C)[C@@H](C)C(=O)N[C@@H](CC(N)=O)C(=O)N2CCC[C@H]2C(=O)N[C@@H](Cc2cnc[nH]2)C(=O)N[C@@H](CC(C)C)C(=O)N2C[C@H](O)C[C@H]2C(=O)N[C@@H](Cc2c[nH]c3ccccc23)C(=O)N[C@@H](CO)C(=O)N[C@@H](Cc2csc3ccccc23)C(=O)N1C (some centres unmarked) [Example 9028] ({CH2CO}-Y[NMeA]NPHL[Hyp]WS[Bta][NMeNle][NMeNle]S[ξC]G-NH2; thioether N-14)
Ans: 0.385 to 6.74 nM

----------
- experimental_system: Human PD-L1/PD-1 (Homo sapiens, UniProt Q9NZQ7)
- Construct: made in house; host or cells: HEK293T
- assay_remarks: HTRF PD-1-Ig/PD-L1-His binding assay (human PD-L1)
- conditions_used: cluster symbol; read-out: HTRF IC50 cluster
Positions of bridges follow the written chain, without caps; N, C: chain ends. Non-standard residues stand in square brackets, D forms with d. Residues, ends and D or L forms follow the SMILES beside them. NMeNle = CCCC[C@H](NC)C(=O)O; NMeA = CN[C@@H](C)C(=O)O; Sar = CNCC(=O)O
The entries below come with measured IC50 values attached.

CCCC[C@H]1C(=O)N(C)[C@@H](CCCC)C(=O)N[C@@H](CCCNC(=N)N)C(=O)N[C@H](C(=O)NCC(=O)O)CSCC(=O)N[C@@H](Cc2ccc(O)cc2)C(=O)N(C)[C@@H](C)C(=O)N[C@@H](CC(N)=O)C(=O)N2CCC[C@H]2C(=O)N[C@@H](Cc2cnc[nH]2)C(=O)N[C@@H](CC(C)C)C(=O)N2C[C@H](O)C[C@H]2C(=O)N[C@@H](Cc2c[nH]c3ccccc23)C(=O)N[C@@H](CO)C(=O)N[C@@H](Cc2c[nH]c3ccccc23)C(=O)N1C
6.76 to 30.3 nM

Q: Retrieve IC50 measured for CCCC[C@H]1C(=O)N(C)[C@@H](CCCC)C(=O)N[C@@H](CCCNC(=N)N)C(=O)N[C@H](C(=O)NCC(N)=O)CSCC(=O)N[C@@H](Cc2ccccc2)C(=O)N(C)[C@@H](C)C(=O)N[C@@H](CC(N)=O)C(=O)N2CCC[C@H]2C(=O)N[C@@H](Cc2cnc[nH]2)C(=O)NCC(=O)N(C)CC(=O)N[C@@H](Cc2c[nH]c3ccccc23)C(=O)N[C@@H](CO)C(=O)N[C@@H](Cc2c[nH]c3ccccc23)C(=O)N1C [Example 1053] ({CH2CO}-F[NMeA]NPHG[Sar]WSW[NMeNle][NMeNle]RCG-NH2; thioether N-14) and print it.
Ans: > 30.5 nM
